Consider the following compounds; for each one, report its viability inhibition at highest dose.
- Test system: T-47D
- Experiment summary: viability inhibition at highest dose (% inhibition); higher = more growth inhibition
- Conditions: 4-OH-tamoxifen in medium 1 µM; 72 h

Query :: Write viability inhibition at highest dose of CC[C@]1(O)C[C@@H]2CN(CCc3c([nH]c4ccccc34)[C@@](C(=O)OC)(c3cc4c(cc3OC)N(C)[C@H]3[C@@](O)(C(=O)OC)[C@H](OC(C)=O)[C@]5(CC)C=CCN6CC[C@]43[C@@H]65)C2)C1 [Vinblastine] (drug 1000 nM) ; system used: T-47D
Result :: 22.2

Query :: Write viability inhibition at highest dose of COc1cc(Nc2c(C#N)cnc3cc(OCCCN4CCN(C)CC4)c(OC)cc23)c(Cl)cc1Cl [Bosutinib] (drug 10000 nM) ; system used: T-47D
Result :: 66.7

Query :: Write viability inhibition at highest dose of Cn1cnc2c(F)c(Nc3ccc(Br)cc3F)c(C(=O)NOCCO)cc21 [MEK-162 (ARRY-162)] (drug 1000 nM) ; system used: T-47D
Result :: -10.7

Query :: Write viability inhibition at highest dose of O=S(=O)(c1cccc2cnccc12)N1CCCNCC1 [Fasudil (HA-1077)] (drug 50000 nM) ; system used: T-47D
Result :: -12.4

Query :: Write viability inhibition at highest dose of CC[C@@H]1C(=O)N(C)c2cnc(Nc3ccc(C(=O)N[C@H]4CC[C@H](N5CCN(CC6CC6)CC5)CC4)cc3OC)nc2N1C(C)C [Volasertib (BI 6727)] (drug 1000 nM) ; system used: T-47D
Result :: -1.17

Query :: Write viability inhibition at highest dose of N.N.[Cl][Pt][Cl] [Cisplatin] (drug 10000 nM) ; system used: T-47D
Result :: -8.72

Query :: Write viability inhibition at highest dose of NCC(=O)CCC(=O)O [Aminolevulinic acid] (drug 10000 nM) ; system used: T-47D
Result :: -10.6

Query :: Write viability inhibition at highest dose of O=C(CCBr)N1CCN(C(=O)CCBr)CC1 [Pipobroman] (drug 10000 nM) ; system used: T-47D
Result :: -5.88

Query :: Write viability inhibition at highest dose of Nc1cc(C(F)(F)F)c(-c2cc(N3CCOCC3)nc(N3CCOCC3)n2)cn1 [Buparlisib (BKM-120)] (drug 10000 nM) ; system used: T-47D
Result :: 77.6

Query :: Write viability inhibition at highest dose of Nc1ncn([C@@H]2O[C@H](CO)[C@@H](O)[C@H]2O)c(=O)n1 [Azacitidine] (drug 10000 nM) ; system used: T-47D
Result :: -5.14

Query :: Write viability inhibition at highest dose of O=P1(NCCCl)OCCCN1CCCl (stereo not given) [Ifosfamide] (drug 10000 nM) ; system used: T-47D
Result :: -8.32

Query :: Write viability inhibition at highest dose of Oc1ncc(N(CCCl)CCCl)c(O)n1 [Uracil mustard] (drug 10000 nM) ; system used: T-47D
Result :: -6.35

Query :: Write viability inhibition at highest dose of CS(=O)(=O)c1ccc(C(=O)Nc2ccc(Cl)c(-c3ccccn3)c2)c(Cl)c1 [Vismodegib] (drug 10000 nM) ; system used: T-47D
Result :: 6.47

Query :: Write viability inhibition at highest dose of COc1cc2ncnc(Nc3ccc(F)c(Cl)c3)c2cc1OCCCN1CCOCC1 [Gefitinib] (drug 10000 nM) ; system used: T-47D
Result :: 8.3

Query :: Write viability inhibition at highest dose of C[C@@H](Oc1cc(-c2cnn(C3CCNCC3)c2)cnc1N)c1c(Cl)ccc(F)c1Cl [Crizotinib] (drug 1000 nM) ; system used: T-47D
Result :: -7.52
